src = PubChem BioAssay (NCI)

Below, each entry is listed alongside its reported growth inhibition.
Experiment: NCI Yeast Anticancer Drug Screen. Data for the sgs1 mgt1 strain (AID 161);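 also: 0% = growth of cultures given vehicle only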
Conditions: S. cerevisiae sgs1 mgt1 strain, at 50.0 µM, active compounds read high
This is part of a sample that, as a whole, favours compounds with a hit. Of some 79,000 tested, about 15% had one in any assay.
Dear colleague, please return just the value in %, with no unit written.

Look over these answered cases.
>  <compound>
CN(C)c1ccc(C=C(C(=O)O)C(=O)O)cc1

>  <unitDescriptor>
%

>  <growth inhibition>
-8.1

$$$$
>  <compound>
COc1ccccc1NC(=O)C1=C(C)NC(C)=C(C(=O)Nc2ccccc2OC)C1c1ccc(C(C)C)cc1

>  <unitDescriptor>
%

>  <growth inhibition>
11.8

$$$$
>  <compound>
O=C(O)COc1ccc(C(=O)O)cc1

>  <unitDescriptor>
%

>  <growth inhibition>
3.7

$$$$
>  <compound>
C1=C(c2ccccc2)c2ccccc2/C1=N/Nc1ccccc1

>  <unitDescriptor>
%

>  <growth inhibition>
8.1

$$$$
>  <compound>
NCC(O)C(F)(F)F (configuration not stated)

>  <unitDescriptor>
%

>  <growth inhibition>
-27.3

$$$$
>  <compound>
C/C=C/c1cc(C)cc(C)c1OC(C)CC (configuration not stated)

>  <unitDescriptor>
%

>  <growth inhibition>
11.4

$$$$

Req: Kindly indicate its recorded growth inhibition. Item: C#CCOCCCC(=O)O
Resp: 0.6

---

Assay: NCI Yeast Anticancer Drug Screen. Data for the cln2 rad14 strain (AID 165);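 also: 0% = growth equal to vehicle treated cultures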
Settings: S. cerevisiae cln2 rad14 strain, at 50.0 µM, active compounds read high
This is part of a sample that, as a whole, favours compounds with a hit. Of some 79,000 tested, about 15% had one in any assay.
The following compounds are shown together with reported growth inhibition values.
Reply with just the number (in %).

>  <compound>
Cc1ccc(S(=O)(=O)NC2CC3(C)CCC2C3(C)C)cc1 (configuration not stated)

>  <parameterMeasured>
growth inhibition

>  <experimentalValue>
-46.1

$$$$
>  <compound>
O=C(N/N=C/c1ccc(O)cc1)c1ccccc1NC(=O)C1CC1

>  <parameterMeasured>
growth inhibition

>  <experimentalValue>
2.55

$$$$
>  <compound>
CN=c1ss/c(=N\C(=S)N(C)C)n1C

>  <parameterMeasured>
growth inhibition

>  <experimentalValue>
28

$$$$
>  <compound>
NC1(C(=O)O)CC(O)(c2ccccc2)C(O)(c2ccccc2)C1 (configuration not stated)

>  <parameterMeasured>
growth inhibition

>  <experimentalValue>
6.2

$$$$
>  <compound>
O=C(OCc1ccccc1CN1CCCC1)c1ccc(Br)cc1

>  <parameterMeasured>
growth inhibition

>  <experimentalValue>
-16.9

$$$$
>  <compound>
CN(Cc1ccccc1)C(=O)/C=C/c1ccccc1

>  <parameterMeasured>
growth inhibition

>  <experimentalValue>
2.85

$$$$

Req: Specify measured growth inhibition for C=C1C(=O)O[C@@H]2[C@@H]3[C@@H](C)C(=O)C=C[C@]3(C)CC[C@@H]12 .
Resp: 7.05

Req: Give me measured growth inhibition, please, for this compound: O=C(O)C[C@H]1CCCCC12CCOC2=O (some centres not stated)
Resp: -18.6

Req: Report measured growth inhibition; entry is Cc1ccccc1-c1c2ccccc2cc2c1ccc1ccccc12
Resp: -20.9

---

Assay: NCI Yeast Anticancer Drug Screen. Data for the mec2-1 strain (AID 157)
Conditions: S. cerevisiae mec2-1 strain, at 50.0 µM, active compounds read high
This is part of a sample that, as a whole, favours compounds with a hit. Of some 79,000 tested, about 15% had one in any assay. Calls of active or inactive are those of the source. Cut-off read from the data, not from the text of the source: active = growth inhibition above about 70%; inactive = the rest.
Quick reference: growth inhibition of the listed items.

Use these answered entries as a reference point.
>  <compound>
COc1cc(/C=C/C=C2\CC/C(=C\C=C\c3ccc(O)c(OC)c3)C2=O)ccc1O

>  <experimentalValue>
18.4% (inactive)

$$$$
>  <compound>
O=C(OCCCCNC1CCCCC1)c1ccc([N+](=O)[O-])cc1

>  <experimentalValue>
3% (inactive)

$$$$
>  <compound>
Cc1cnccc1P(=O)(O)O

>  <experimentalValue>
-4.8% (inactive)

$$$$
>  <compound>
O=C(O)c1cc(C(=O)O)cc(S(=O)(=O)N2CCOCC2)c1

>  <experimentalValue>
3.25% (inactive)

$$$$

Req: Name the recorded growth inhibition of the compound listed here: CN(CCC1(C)C(=O)CCc2ccccc21)Cc1ccccc1 (stereo unspecified)
Resp: 21.8% (inactive)

Req: Determine its reported growth inhibition: CN(/N=C\c1ccc([N+](=O)[O-])cc1)C(=O)c1ccccc1
Resp: -4.15% (inactive)

---

Listed compounds paired with reported growth inhibition
Assay: NCI Yeast Anticancer Drug Screen. Data for the mec2-1 strain (AID 157)
Settings: S. cerevisiae mec2-1 strain, at 50.0 µM, active compounds read high
This is part of a sample that, as a whole, favours compounds with a hit. Of some 79,000 tested, about 15% had one in any assay.
Response body: numeric value in %, unit text excluded.

>  <compound>
OC(C(c1ccccc1)N1CCCCC1)C(O)(c1ccccc1)c1ccccc1 (configuration not stated)

>  <experimentalValue>
-3.15

$$$$
>  <compound>
O=[N+]([O-])c1ccc(NC(=S)Nc2ccc([N+](=O)[O-])cc2)cc1

>  <experimentalValue>
-17.6

$$$$
>  <compound>
S=C1NCCOc2ccccc21

>  <experimentalValue>
-13.1

$$$$
>  <compound>
O=c1cc(-c2ccccc2F)[nH]c2ccc(N3CCCC3)cc12

>  <experimentalValue>
6.2

$$$$
>  <compound>
CCN(CCO)CC(=O)c1cc(Cl)ccc1OC

>  <experimentalValue>
13.6

$$$$

Req: Given the compound Nc1nc(N)c2nc3c(nc2n1)CCCCCC3 , write its reported growth inhibition.
Resp: -4

---

Experiment: NCI Yeast Anticancer Drug Screen. Data for the mlh1 rad18 strain (AID 175)
Conditions: S. cerevisiae mlh1 rad18 strain growth inhibition; at 50.0 µM; active compounds read high
Procedure: Growth inhibition of yeast strains with defined genetic alterations is measured as a screen for potential anti-cancer activity. Selected strains with alterations in DNA damage repair or cell cycle control were exposed to compounds and growth inhibition was measured relative to vehicle treated controls. The strain used in this assay is mlh1 rad18
Compounds without any hit were thinned out: in the full panel of roughly 79,000, 15% have a hit.
Below: a set of entries, each annotated with reported growth inhibition.
Write it as a number; the unit % goes unstated.

# count of solved cases: 10
>  <compound>
COc1ccc(C(=O)CC(C#N)c2ccccc2Cl)cc1 (configuration not stated)

>  <experimentalValue>
8.6

$$$$
>  <compound>
COCCNC(c1ccccc1)C(O)c1ccccc1 (configuration not stated)

>  <experimentalValue>
-7.85

$$$$
>  <compound>
CC1NC(=O)C2Cc3ccc(O)c(c3)Oc3cccc(c3)C(O)C(C(=O)N2C)N(C)C(=O)C(C)NC(=O)C(Cc2ccc(O)c(O)c2)N(C)C(=O)C(C)NC1=O (configuration not stated)

>  <experimentalValue>
6.55

$$$$
>  <compound>
CC(=O)[O][Ga]([Br])[O]C(C)=O

>  <experimentalValue>
0.5

$$$$
>  <compound>
Cc1cn(C2CC(N(C)C)C(CO)O2)c(=O)[nH]c1=O (configuration not stated)

>  <experimentalValue>
-34.8

$$$$
>  <compound>
CCCCCCCCCCCCCCCCCCCl

>  <experimentalValue>
28.4

$$$$
>  <compound>
Nc1nc2c(c(-c3ccc(F)cc3)n1)COC/C2=C\c1ccc(F)cc1

>  <experimentalValue>
19.6

$$$$
>  <compound>
COc1cc(/C=C/C(=O)O)cc(OC)c1O

>  <experimentalValue>
16.5

$$$$
>  <compound>
NNC(=O)COCC(=O)NN

>  <experimentalValue>
-25.1

$$$$
>  <compound>
CC(=O)N(C)c1ccc(NC(=O)Cc2ccccc2)cc1

>  <experimentalValue>
-2.35

$$$$

Req: Using known records, supply growth inhibition for CCCC(=O)C(=O)CCC
Resp: -3.45

Req: Output growth inhibition of N#CCCOC(=O)Nc1cccc(Cl)c1
Resp: 33.6

---

growth inhibition by entry:
Assay: NCI Yeast Anticancer Drug Screen. Data for the mlh1 rad18 strain (AID 175)
Details: S. cerevisiae mlh1 rad18 strain growth inhibition; at 50.0 µM; active compounds read high
Protocol: Growth inhibition of yeast strains with defined genetic alterations is measured as a screen for potential anti-cancer activity. Selected strains with alterations in DNA damage repair or cell cycle control were exposed to compounds and growth inhibition was measured relative to vehicle treated controls. The strain used in this assay is mlh1 rad18
The panel holds about 79,000 compounds, 15% with a hit somewhere; the sample as a whole holds those more often. Where a SMILES comes first, the peptide text is derived from it. [ ]: non-standard residue; d: D form. The star is where a group is joined. ξ: configuration not given here. ξD = NC(CC(=O)O)C(=O)O; Boc = CC(C)(C)OC(=O)*; Aib = CC(C)(N)C(=O)O; OBn = c1ccc(CO*)cc1
Only the number, expressed in %, is required.

See these solved cases before continuing.
>  <compound>
COc1ccc2nc3cc(Cl)ccc3c(NN3CCN(CCO)CC3)c2c1

>  <experimentalValue>
-3.6

$$$$
>  <compound>
N#C/C(=C\C1CCCC([N+](=O)[O-])C1)C1CCC([N+](=O)[O-])CC1 (stereo not given)

>  <experimentalValue>
2.85

$$$$
>  <compound>
CC(C)(C)OC(=O)NC(CC(=O)OCc1ccccc1)C(=O)NC(C)(C)C(N)=O (stereo not given) (Boc-[ξD](OBn)-[Aib]-NH2)

>  <experimentalValue>
-19.8

$$$$
>  <compound>
O=C1C=C(n2ccccc2=O)CCC1

>  <experimentalValue>
0.05

$$$$

Continue with the next compound.
Req: Note growth inhibition for the compound shown: COc1cccc(C2c3cc4c(cc3OC(N3CCCCC3)C2C)OCO4)c1OC (stereo not given)
Resp: 61.8
